Cited source for all entries: PubChem BioAssay (NCI)

Test system: BT-549 breast
protocol details: NCI tumour cell line growth inhibition, 48 h
Please go through the items and note down their TGI.

>  <molecular string>
Cn1c(N)c(/C=N/NC(=O)CC#N)c(=O)n(C)c1=O

>  <observed value>
> 100 µM

$$$$

Could I get TGI for every one of these entries?
1. COc1ccc(C[C@H]2C[C@@H](O)[C@@H](C)C/C=C/Cc3cccc(O)c3C(=O)O2)cn1
2. C/C(=N\N=C(N)N)c1c(C(=O)OCCCCCCOC(=O)c2nc3sccn3c2/C(C)=N/N=C(N)N)nc2sccn12
3. COc1ccc(S(=O)(=O)N/N=C/C(=O)O)cc1
4. O=c1oc2ccccc2cc1-c1nc2ccc([N+](=O)[O-])cc2o1

Out:
48.8 µM
> 100 µM
704 µM
> 100 µM

###

System: SF-295 CNS
protocol details: NCI tumour cell line growth inhibition, 48 h
endpoint name: TGI

Here's what some known entries look like.
>  <molecule>
CC(C)(C)OC(=O)NC(Cc1ccccc1)C(=O)N[C@H]1c2ccsc2/C(=N/O)[C@H]1O (stereo not given in full)

>  <endpoint name>
TGI

>  <observed value>
> 100 µM

$$$$
>  <molecule>
COc1ccc(S(=O)(=O)N/N=C/C(=O)O)cc1

>  <endpoint name>
TGI

>  <observed value>
1070 µM

$$$$
>  <molecule>
CCOC(=O)/C=C1\Nc2ccccc2C12CCc1c([nH]c3ccccc13)C2C(=O)OCC (stereo not given)

>  <endpoint name>
TGI

>  <observed value>
> 100 µM

$$$$
>  <molecule>
CC[C@]12C=CCN3CC[C@]4(C(=C(C(=O)OC)C1)Nc1cc(O)ccc14)[C@@H]32

>  <endpoint name>
TGI

>  <observed value>
33.1 µM

$$$$
>  <molecule>
COc1cc(C2C3=C(COC3=O)N(CCO)c3cc4c(cc32)CCC4)cc(OC)c1O (stereo not given)

>  <endpoint name>
TGI

>  <observed value>
0.354 µM

$$$$

Could I get TGI for every one of these entries?
1. O=C1c2cc3c(cc2CC12Cc1cc4c(cc1C2)CCC4)CCC3
2. CC(C)=CC(=O)O[C@@H]1CC(C)(C)CC2C3=CCC4[C@]56CC[C@](O)(OC5)C(C)(C)C6CC[C@@]4(C)C3(C)CC[C@]21C(=O)O (stereo not given in full)
3. N#CC1c2ccccc2-c2ccccc2N1C(=O)c1ccccc1 (stereo not given)
4. CC1Cc2c(N(C)C)ncnc2N(C)c2ccc(Cl)cc21 (stereo not given)
5. CN1CC2(CCCCC2)C(O)C12C=CCCC2 (stereo not given)

Out:
1: > 100 µM; 2: > 100 µM; 3: > 100 µM; 4: 9.85 µM; 5: > 100 µM

###

Tested on: OVCAR-3 ovarian
protocol details: NCI tumour cell line growth inhibition, 48 h; in the data active means GI50 below about 0.43 µM; inactive means the rest
Write down the outcome that applies. Available outcomes: active, inactive

>  <molecule>
CC(C)OP(=O)(OC(C)C)C(N(C)C)P(=O)(OC(C)C)OC(C)C.[Cl][Sn]([Cl])([Cl])[c]1ccccc1

>  <assigned label>
inactive

$$$$
>  <molecule>
CCOC(=O)c1[nH]c2c(c1C)-c1[nH]c(=O)c(S(=O)(=O)c3ccccc3)cc1SC2

>  <assigned label>
inactive

$$$$
>  <molecule>
O=C1OC(c2ccc(O)cc2)(c2ccc(O)cc2)c2cccc3cccc1c23

>  <assigned label>
inactive

$$$$
>  <molecule>
Cc1ccc(NCSc2ccc(Cl)cc2)cc1

>  <assigned label>
inactive

$$$$
>  <molecule>
CC[C@@]1(OC(=O)CN)C(=O)OCc2c1cc1n(c2=O)Cc2cc3cc(N)ccc3nc2-1

>  <assigned label>
active

$$$$
>  <molecule>
O=C(/C=C/N1CCN(c2cccc(C(F)(F)F)c2)CC1)c1ccc(Cl)cc1Cl

>  <assigned label>
inactive

$$$$

In: Given O=C1c2cccnc2C(=O)c2c1c(C(=O)OCCCN1CCOCC1)c1ccccn21 , state the outcome it received in this test.
Out: active

In: Given O=C1C=C(Nc2cccc(Br)c2)c2ccccc2C1=O , state the outcome it received in this test.
Out: inactive

In: Given Cc1nn(-c2ccccc2)c2c1C1C(=C(c3ccc(Cl)cc3)N2)C(=O)Nc2ccccc21 (centres undefined) , state the outcome it received in this test.
Out: inactive
